Overview of recorded pIC50 for various compounds
study_system: MEK1^CA (human GST-MEK1, constitutively active, Ser218Asp and Ser222Asp) (Homo sapiens, UniProt Q02750, S218D/S222D)
Construct: GST; made in house; host or cells: Escherichia coli
Sequence (Q02750 whole entry S218D/S222D): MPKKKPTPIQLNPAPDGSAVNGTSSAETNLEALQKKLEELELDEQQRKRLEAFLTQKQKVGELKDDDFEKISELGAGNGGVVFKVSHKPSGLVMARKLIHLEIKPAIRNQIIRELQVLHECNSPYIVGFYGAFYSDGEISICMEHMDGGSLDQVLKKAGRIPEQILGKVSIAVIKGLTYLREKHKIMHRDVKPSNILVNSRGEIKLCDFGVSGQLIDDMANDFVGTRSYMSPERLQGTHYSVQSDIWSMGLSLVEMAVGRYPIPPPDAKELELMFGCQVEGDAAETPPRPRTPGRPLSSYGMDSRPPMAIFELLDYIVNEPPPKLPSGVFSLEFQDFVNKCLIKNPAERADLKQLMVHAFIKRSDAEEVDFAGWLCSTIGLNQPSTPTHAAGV
experiment_summary: MEK1 enzymatic activity assay (MEK1^CA / ERK2 / MBP, [γ-33P]ATP incorporation)
Format: biochemical
conditions_used: Table 1, compounds of formula I; read-out: Avg IC50
pIC50: −log10 of the molar value.

Worked examples follow.
Cc1cc(Nc2snc(O)c2C(=N)NC(C)C)ccc1Oc1ccccc1Cl [compound 316]: 7.00 to 9.00
N=C(NC(CO)CO)c1c(O)nsc1Nc1ccc(Oc2ccccc2)cc1 [compound 164]: 7.00 to 9.00
Cc1cc(Nc2snc(O)c2C(=N)NC(C)CO)ccc1Oc1ccc(C(F)(F)F)cc1 (centres unmarked) [compound 386]: < 6.30
CC(C)N(O)C(=N)c1c(O)nsc1Nc1ccc(Oc2ccccc2)cc1 [compound 144]: 7.00 to 9.00
N=C(NCCN1CCNCC1)c1c(O)nsc1Nc1ccc(Oc2ccc(Cl)cc2Cl)cc1 [compound 428]: 6.30 to 7.00
CC(C)NC(=N)c1c(O)nsc1Nc1ccc(Oc2cc(Cl)ccc2Cl)nc1 [compound 431]: 7.00 to 9.00

QUERY: Find the recorded pIC50 belonging to CC(CO)NC(=N)c1c(O)nsc1Nc1ccc(Oc2ccc(Br)cc2)c(F)c1 (centres unmarked) [compound 333] and report it.
RESULT: 7.00 to 9.00

QUERY: Which value of pIC50 has been reported for CC(C)NC(=N)c1c(O)nsc1Nc1ccc(Oc2ccc(F)cc2)c(Cl)c1 [compound 387] in the records?
RESULT: 6.30 to 7.00

QUERY: Need pIC50, item N=C(NCc1cccc2ccccc12)c1c(O)nsc1Nc1cccc(Cl)c1Cl [compound 105]
RESULT: < 6.30

QUERY: Looking for the measured pIC50 of CC(C)NC(=N)c1c(O)nsc1Nc1ccc(Oc2ccccc2Br)cc1 [compound 293] , can you help?
RESULT: 7.00 to 9.00

QUERY: Reported pIC50 for COc1ccc(Nc2snc(O)c2-c2nnn[nH]2)c(OC)n1 [compound 181] : what is it?
RESULT: < 6.30

QUERY: Requested read-out: pIC50. Entry: N=C(NCC1CC1)c1c(O)nsc1Nc1ccc(Oc2ccccc2)cc1 [Cpd 19]
RESULT: 7.00 to 9.00

###

This section presents molecules with their documented IC50 values.
study_system: MEK1^CA (human GST-MEK1, constitutively active, Ser218Asp and Ser222Asp) (Homo sapiens, UniProt Q02750, S218D/S222D)
Construct: GST; made in house; host or cells: Escherichia coli
experiment_summary: MEK1 enzymatic activity assay (MEK1^CA / ERK2 / MBP, [γ-33P]ATP incorporation)
Format: biochemical
conditions_used: Table 1, compounds of formula I; read-out: Avg IC50

These solved cases illustrate the format of a correct answer.
CC(C)NC(=N)c1c(O)nsc1Nc1ccc(Oc2ccccc2F)cc1: 1 to 100 nM
COc1cc2c(cc1Nc1snc(O)c1C(=N)NCC1CCCCC1)oc1ccccc12: > 500 nM
Cc1cc(Nc2snc(O)c2C(=N)NC(C)C)ccc1Oc1cc(F)ccc1Cl: 100 to 500 nM
CC(C)NC(=N)c1c(O)nsc1Nc1ccc(Oc2ccc(F)cc2F)cc1: 1 to 100 nM

Now examine the next entry.
QUERY: Requested read-out: IC50. Entry: CC(C)NC(=N)c1c(O)nsc1Nc1ccc(C(=O)c2ccccc2)cc1
RESULT: 100 to 500 nM
